molecular target: T1, human collagen type I, acid soluble, extracted from placenta (Sigma C7774) (human, UniProt P02452 162-1218; P08123 80-1119); test: dried collagen assay
T1 construct: tissue extract, gelled and dried in wells; also called dried human collagen; h-Collagen
T1 sequence (P02452 162-1218 limits assumed, chain 1 of 2): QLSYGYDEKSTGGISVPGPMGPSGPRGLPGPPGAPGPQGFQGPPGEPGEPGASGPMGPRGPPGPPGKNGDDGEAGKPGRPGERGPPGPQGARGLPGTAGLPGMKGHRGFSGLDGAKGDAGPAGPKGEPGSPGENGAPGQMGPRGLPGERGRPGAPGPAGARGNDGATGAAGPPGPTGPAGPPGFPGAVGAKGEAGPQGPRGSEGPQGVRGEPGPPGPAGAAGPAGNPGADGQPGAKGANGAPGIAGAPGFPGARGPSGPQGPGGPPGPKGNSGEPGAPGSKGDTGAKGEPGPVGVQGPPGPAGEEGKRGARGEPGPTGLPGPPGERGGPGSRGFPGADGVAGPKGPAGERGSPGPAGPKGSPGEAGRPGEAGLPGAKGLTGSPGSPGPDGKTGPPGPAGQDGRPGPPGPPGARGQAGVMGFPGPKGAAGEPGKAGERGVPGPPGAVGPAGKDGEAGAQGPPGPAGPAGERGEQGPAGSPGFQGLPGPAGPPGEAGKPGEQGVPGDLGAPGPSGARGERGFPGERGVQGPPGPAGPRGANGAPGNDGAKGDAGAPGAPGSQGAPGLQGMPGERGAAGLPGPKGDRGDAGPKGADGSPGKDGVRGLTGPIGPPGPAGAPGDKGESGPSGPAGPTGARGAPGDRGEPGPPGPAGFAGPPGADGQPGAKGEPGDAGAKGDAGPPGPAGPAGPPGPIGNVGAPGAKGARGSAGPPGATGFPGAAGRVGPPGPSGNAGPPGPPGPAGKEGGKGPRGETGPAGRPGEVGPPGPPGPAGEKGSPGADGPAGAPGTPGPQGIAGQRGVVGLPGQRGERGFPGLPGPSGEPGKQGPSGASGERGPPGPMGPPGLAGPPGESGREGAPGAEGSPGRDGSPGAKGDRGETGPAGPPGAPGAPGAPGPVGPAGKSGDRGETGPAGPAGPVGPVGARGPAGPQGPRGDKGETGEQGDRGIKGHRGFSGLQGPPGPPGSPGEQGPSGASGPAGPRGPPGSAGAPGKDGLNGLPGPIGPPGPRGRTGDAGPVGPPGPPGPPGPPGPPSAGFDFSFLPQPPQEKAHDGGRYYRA
T1 sequence (P08123 80-1119 limits assumed, chain 2 of 2): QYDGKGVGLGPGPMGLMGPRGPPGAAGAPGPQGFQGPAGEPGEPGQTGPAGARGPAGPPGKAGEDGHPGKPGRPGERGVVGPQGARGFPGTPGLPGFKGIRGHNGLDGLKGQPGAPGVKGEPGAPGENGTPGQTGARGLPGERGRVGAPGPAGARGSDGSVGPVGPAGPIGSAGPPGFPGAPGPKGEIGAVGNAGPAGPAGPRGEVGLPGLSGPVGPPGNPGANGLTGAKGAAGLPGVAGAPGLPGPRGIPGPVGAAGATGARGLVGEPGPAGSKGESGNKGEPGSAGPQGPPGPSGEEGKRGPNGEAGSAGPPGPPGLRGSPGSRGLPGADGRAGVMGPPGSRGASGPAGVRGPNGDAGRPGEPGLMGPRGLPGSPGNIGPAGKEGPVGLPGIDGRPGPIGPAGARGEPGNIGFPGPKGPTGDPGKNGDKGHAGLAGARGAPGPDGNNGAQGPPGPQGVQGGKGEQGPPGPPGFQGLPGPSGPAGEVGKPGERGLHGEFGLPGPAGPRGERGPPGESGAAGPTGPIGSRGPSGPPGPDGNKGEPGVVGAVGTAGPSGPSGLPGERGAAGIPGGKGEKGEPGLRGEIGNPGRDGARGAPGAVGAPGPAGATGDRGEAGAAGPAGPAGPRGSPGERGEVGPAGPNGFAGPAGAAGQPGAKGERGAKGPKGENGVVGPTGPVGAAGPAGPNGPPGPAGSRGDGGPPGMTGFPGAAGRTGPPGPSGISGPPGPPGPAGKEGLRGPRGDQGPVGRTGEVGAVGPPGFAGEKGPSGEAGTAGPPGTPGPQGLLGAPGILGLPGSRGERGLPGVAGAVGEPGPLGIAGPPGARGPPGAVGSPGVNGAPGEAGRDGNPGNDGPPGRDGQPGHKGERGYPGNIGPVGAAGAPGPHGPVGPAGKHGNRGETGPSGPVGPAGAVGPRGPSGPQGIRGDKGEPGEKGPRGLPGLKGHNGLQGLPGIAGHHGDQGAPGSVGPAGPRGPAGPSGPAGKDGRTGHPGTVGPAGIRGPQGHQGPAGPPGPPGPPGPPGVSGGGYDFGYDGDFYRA
Bridge positions count the residues as written; N and C are the ends. Square brackets hold non-standard residues; d marks the D form. Ends that are not written are not given here.
// returns no unless % bound is strictly below 7%, in which case yes

- binder: "FWTCELDFRQSWYCYDK (disulfide 4-14 (inferred), cyclic, disulfide) [SEQ ID NO 79]"
  group: "no"
- binder: "GQWTCSGDEYAWHCNY[dE] (disulfide 5-14 (inferred), cyclic, disulfide) [SEQ ID NO 126]"
  group: "no"
- binder: "YPACDDQTHLWNLACWPA (disulfide 4-15 (inferred), cyclic, disulfide) [SEQ ID NO 103]"
  group: "yes"
- binder: "QWTCSGDEY[dT]WHCNYE (disulfide 4-13 (inferred); not fully specified (N-terminus); printed as QWTCSGDEYtWHCNYE, cyclic, disulfide) [SEQ ID NO 172]"
  group: "no"

The measured values listed here are drawn from patent US20080044360A1.
